Entries annotated with measured IC50
- study target: MMP-13 (Homo sapiens)
- Construct: made in house; host or cells: baculovirus / insect cells
- assay procedure: biochemical
- recorded conditions: recombinant human MMP-13, MCA peptide substrate 4 μM, pH 7.5, room temperature; read-out: MMP-13 IC50
- Method: The compounds prepared in the manner described in the Examples above were assayed for activity by an in vitro assay. […] Briefly, 4-aminophenylmercuric acetate (APMA) or trypsin-activated MMPs were incubated with various concentrations of the inhibitor compound at room temperature for 5 minutes. […] Inhibition was measured as a reduction in fluorescent intensity as a function of inhibitor concentration, using a Perkin Elmer L550 plate reader. The IC50 values were calculated from those values. […]
outcome measure: IC50

compound="O=C(NO)C1(S(=O)(=O)c2ccc(OC3CCC(OCc4cccc(Cl)c4)C3)cc2)CCOCC1 (stereo not shown) [Example 668]" result_value="2 nM"
compound="Nc1ccc(OC2CCN(c3ccc(S(=O)(=O)C4(C(=O)NO)CCOCC4)cc3)CC2)cc1 [Example 553]" result_value="12.8 nM"
compound="Cc1ccc(C(=O)C2CCN(c3ccc(S(=O)(=O)C4(C(=O)NO)CCN(C5CC5)CC4)cc3)CC2)cc1 [Example 373]" result_value="3 nM"
compound="COc1ccc(C(=O)C2CCN(c3ccc(S(=O)(=O)C4(C(=O)NO)CCN(C(=O)OCc5ccccc5)CC4)cc3)CC2)cc1 [Example 435]" result_value="5.9 nM"
compound="O=C(Nc1ccc(F)cc1)OC1CCN(c2ccc(S(=O)(=O)C3(C(=O)NO)CCOCC3)cc2)CC1 [Example 191]" result_value="3.5 nM"
compound="CC1CC(C)CN(C(=O)C2CCN(c3ccc(S(=O)(=O)C4(C(=O)NO)CCN(C(=O)CN(C)CCN(C)C)CC4)cc3)CC2)C1 (stereo not shown) [Example 287]" result_value="150 nM"
compound="O=C(NO)C1(S(=O)(=O)c2ccc(N3CC[C@@H](OCc4ccc(OC(F)(F)F)cc4)C3)cc2)CCOCC1 [Example 467]" result_value="27 nM"

---

- study target: MMP-2 (Homo sapiens)
- Construct: made in house; provided by Dr. Gregory Goldberg, Washington University
- assay procedure: biochemical
- recorded conditions: recombinant human MMP-2, MCA peptide substrate 4 μM, pH 7.5, room temperature; read-out: MMP-2 IC50
pIC50: −log10 of the molar value.
Entries annotated with measured pIC50
outcome measure: pIC50

compound=CCCCOc1cccc(S(=O)(=O)N2CC(Oc3ccc(S(=O)(=O)C4(C(=O)NO)CCOCC4)cc3)C2)c1 study_target="MMP-2 (Homo sapiens)" qual== result_value=5.68
compound=O=C(NO)C1(S(=O)(=O)c2ccc(N3CCC(OCc4ccc(COCC(F)(F)C(F)(F)C(F)(F)C(F)F)cc4)CC3)cc2)CCOCC1 study_target="MMP-2 (Homo sapiens)" qual== result_value=5.74
compound="CC1CC(C)CN(C(=O)C2CCN(c3ccc(S(=O)(=O)C4(C(=O)NO)CCN(C(=O)CN5CCOCC5)CC4)cc3)CC2)C1 (stereo not shown)" study_target="MMP-2 (Homo sapiens)" qual=< result_value=5.00
compound=O=C(NO)C1(S(=O)(=O)c2ccc(N3CCC(Oc4ccc5c(c4)OCO5)CC3)cc2)CCOCC1 study_target="MMP-2 (Homo sapiens)" qual== result_value=8.48
compound="COCCN1CCC(C(=O)NO)(S(=O)(=O)c2ccc(N3CCC(C(=O)N4CCc5ccccc54)CC3)cc2)CC1 [Example 246, Monohydrate]" study_target="MMP-2 (Homo sapiens)" qual== result_value=5.57
compound="CC1CCCC(S(=O)(=O)C2CCN(c3ccc(S(=O)(=O)C4(C(=O)NO)CCOCC4)cc3)CC2)C1 (stereo not shown)" study_target="MMP-2 (Homo sapiens)" qual== result_value=6.68
compound=COc1ccc(CC(=O)C2CCN(c3ccc(S(=O)(=O)C4(C(=O)NO)CCOCC4)cc3)CC2)cc1 study_target="MMP-2 (Homo sapiens)" qual== result_value=7.40

---

- study target: MMP-13 (Homo sapiens)
- Construct: made in house; host or cells: baculovirus / insect cells
- assay procedure: biochemical
- recorded conditions: recombinant human MMP-13, MCA peptide substrate 4 μM, pH 7.5, room temperature; read-out: MMP-13 IC50
pIC50: −log10 of the molar value.
Entries annotated with measured pIC50
outcome measure: pIC50

compound=CCCCOc1cccc(S(=O)(=O)N2CC(Oc3ccc(S(=O)(=O)C4(C(=O)NO)CCOCC4)cc3)C2)c1 outcome_measure=pIC50 result_value=7.75
compound=COc1ccc(C(=O)C2CCN(c3ccc(S(=O)(=O)C4(C(=O)NO)CCN(c5ccncc5)CC4)cc3)CC2)cc1 outcome_measure=pIC50 result_value=8.85
compound="CC1CC(C)CN(C(=O)C2CCN(c3ccc(S(=O)(=O)C4(C(=O)NO)CCN(C(=O)CNCC(F)(F)F)CC4)cc3)CC2)C1 (stereo not drawn)" outcome_measure=pIC50 result_value=7.22
compound=CC(=O)N1CCC(C(=O)NO)(S(=O)(=O)c2ccc(N3CCC(C(=O)Nc4ccccc4)CC3)cc2)CC1 outcome_measure=pIC50 result_value=7.70
compound=CCOC1CCN(c2ccc(S(=O)(=O)C3(C(=O)NO)CCOCC3)cc2)CC1 outcome_measure=pIC50 result_value=7.49
compound=O=C(NO)C1(S(=O)(=O)c2ccc(N3CCC(OCc4ccccc4F)CC3)cc2)CCOCC1 outcome_measure=pIC50 result_value=8.06
compound=O=C(NO)C1(S(=O)(=O)c2ccc(N3CCCCCC3)cc2)CCOCC1 outcome_measure=pIC50 result_value=6.80
compound=O=C(NO)C1(S(=O)(=O)c2ccc(N3CCC(OCc4ccc(F)cc4C(F)(F)F)CC3)cc2)CCN(C2CC2)CC1 outcome_measure=pIC50 result_value=7.30
compound="CC1CC(C)CN(C(=O)C2CCN(c3ccc(S(=O)(=O)C4(C(=O)NO)CCN(C(=O)CNCCOCCO)CC4)cc3)CC2)C1 (stereo not drawn)" outcome_measure=pIC50 result_value=7.05
compound=O=C(CS(=O)(=O)c1ccc(Oc2ccncc2)cc1)NO outcome_measure=pIC50 result_value=7.54
compound="O=C(NO)C1(S(=O)(=O)c2ccc(N3CCCCC3CCOCc3ccccc3)cc2)CCOCC1 (stereo not drawn)" outcome_measure=pIC50 result_value=6.28
compound=O=C(NO)C1(S(=O)(=O)c2ccc(N3CCCCC3)cc2)CCOCC1 outcome_measure=pIC50 result_value=7.30
compound=CCCN(CC1CC1)C(=O)C1CCN(c2ccc(S(=O)(=O)C3(C(=O)NO)CCOCC3)cc2)CC1 outcome_measure=pIC50 result_value=7.52
compound="CCC(C)OCc1ccc(COC2CCN(c3ccc(S(=O)(=O)C4(C(=O)NO)CCOCC4)cc3)CC2)cc1 (stereo not drawn)" outcome_measure=pIC50 result_value=8.35
compound=O=C(c1ccco1)N1CCC(C(=O)NO)(S(=O)(=O)c2ccc(N3CCC(OCc4ccc(F)cc4C(F)(F)F)CC3)cc2)CC1 outcome_measure=pIC50 result_value=6.72

---

- study target: MMP-2 (Homo sapiens, UniProt P08253)
- Construct: made in house; provided by Dr. Gregory Goldberg, Washington University
- Sequence (P08253 110-660): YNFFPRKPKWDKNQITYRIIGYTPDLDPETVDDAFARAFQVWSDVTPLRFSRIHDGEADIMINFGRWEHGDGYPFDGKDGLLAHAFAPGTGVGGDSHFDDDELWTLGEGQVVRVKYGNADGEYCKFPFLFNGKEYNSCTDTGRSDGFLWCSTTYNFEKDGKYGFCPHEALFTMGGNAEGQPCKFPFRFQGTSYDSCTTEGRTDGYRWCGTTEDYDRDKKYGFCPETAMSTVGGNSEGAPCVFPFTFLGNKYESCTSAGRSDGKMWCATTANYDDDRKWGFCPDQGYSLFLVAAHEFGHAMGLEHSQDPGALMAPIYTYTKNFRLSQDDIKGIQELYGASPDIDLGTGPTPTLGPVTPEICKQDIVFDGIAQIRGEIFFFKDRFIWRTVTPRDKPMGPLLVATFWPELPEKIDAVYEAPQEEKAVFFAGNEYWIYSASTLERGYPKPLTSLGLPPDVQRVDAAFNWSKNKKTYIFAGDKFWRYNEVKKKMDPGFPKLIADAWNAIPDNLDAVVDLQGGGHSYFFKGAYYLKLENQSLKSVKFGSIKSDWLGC
- assay procedure: biochemical
- recorded conditions: recombinant human MMP-2, MCA peptide substrate 4 μM, pH 7.5, room temperature; read-out: MMP-2 IC50
Please assign 0 whenever IC50 is at or above 200 nM, and 1 whenever it is below.

molecule=O=C(NO)C1(S(=O)(=O)c2ccc(N3CCC(Oc4ccc([N+](=O)[O-])cc4)CC3)cc2)CCOCC1 qualitative_label=1
molecule=O=C(c1ccc2ccccc2c1)C1CCN(c2ccc(S(=O)(=O)C3(C(=O)NO)CCOCC3)cc2)CC1 qualitative_label=0
molecule=O=C(NO)C1(S(=O)(=O)c2ccc(N3CCC(OCc4ccc(COCC(F)(F)C(F)F)cc4)CC3)cc2)CCOCC1 qualitative_label=0
molecule=CN(C(=O)C1CCN(c2ccc(S(=O)(=O)C3(C(=O)NO)CCOCC3)cc2)CC1)c1ccccc1 qualitative_label=0
molecule=Cn1ccnc1CN1CCC(C(=O)NO)(S(=O)(=O)c2ccc(Oc3ccc(OC(F)(F)F)cc3)cc2)CC1 qualitative_label=1
molecule=O=C(NO)C1(S(=O)(=O)c2ccc(Oc3ccc(OC(F)(F)F)cc3)cc2)CCN(c2ccccn2)CC1 qualitative_label=1
molecule=O=C(NO)C1(S(=O)(=O)c2ccc(N3CCC(Oc4ccc([N+](=O)[O-])cc4C(F)(F)F)CC3)cc2)CCOCC1 qualitative_label=0
